Value source: patent US20250250357A1

Let's look at some binders and their measured OD450.
# STUDY TARGET: T1, human MSLN-R3-his protein (human, UniProt Q13421 487-598)
# T1 construct: it is put last here; also called human MSLN-R3 protein; hMSLN-R3-his; not shown: His tag
# T1 sequence (Q13421 495-606): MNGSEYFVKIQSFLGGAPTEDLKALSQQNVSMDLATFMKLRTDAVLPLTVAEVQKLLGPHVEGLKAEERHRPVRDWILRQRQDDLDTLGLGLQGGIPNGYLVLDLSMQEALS
# PROTOCOL DETAILS: ELISA on coated antigen, antibody 20 nM
READOUT NAME: OD450

[[record]]
binder = "S009-F7.69.8 (antibody, human IgG1, kappa, V domains shown, Human-murine chimeric antibody, human IgG1 heavy and kappa light constant regions) VH: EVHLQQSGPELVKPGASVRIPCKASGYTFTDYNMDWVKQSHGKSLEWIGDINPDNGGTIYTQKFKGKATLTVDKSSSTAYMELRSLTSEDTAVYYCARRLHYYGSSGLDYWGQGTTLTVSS VL: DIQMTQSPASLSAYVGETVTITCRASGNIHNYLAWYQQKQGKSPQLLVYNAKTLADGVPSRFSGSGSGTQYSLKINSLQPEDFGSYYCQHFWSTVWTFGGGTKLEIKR"
test_result = "2.55 OD"

[[record]]
binder = "S009-F7.25.19 (antibody, human IgG1, kappa, V domains shown, Human-murine chimeric antibody, human IgG1 heavy and kappa light constant regions) VH: QVQLQQPGTELVKPGASVKLSCKASGYTFTSYWMHWVKQRPGQGLEWIGNIIPSNGGTKYNEKFKSKATLTVDKSSSTAYMQLSSLTSEDSAVYYCSPHYYGGSPGFAYWGQGTLITVSA VL: DIVMTQSQKFMSTSVGDRVSVICKASQNVGTNVAWYQQKPGQSPKALIYSASYRYSGVPDRFTGSGSGTDFTLTISNVQSEDLAEYFCQQYNSYPLTFGGGTKLEIKR"
test_result = "2.71 OD"

[[record]]
binder = "S009-F7.66.12 (antibody, human IgG1, kappa, V domains shown, Human-murine chimeric antibody, human IgG1 heavy and kappa light constant regions) VH: QIPLQQSGPELVKPGASVRISCKASDYAFSSSWMNWVKQRPEKGLEWIGRIFVESGNTHYNDKFNGKATLTADKSSRTAYIQLSSLTSEDSAVYFCTRENIFYHGHSSWFAYWGQGTLVTVSA VL: DIVLTQSPASLVVSLGQRATISCRAGESVDDFGISYVHWYQQKPGQPPKLLIYRAANLESGIPARFSGSGSRTDFTLTINPVETDDVAIYYCQQNNKDPFTFGSGTKLEIKR"
test_result = "2.37 OD"

